- experiment.description: Clearance in mouse at 1 mg/kg, iv
- Assay type: ADME, organism-based
- Set-up: dose 1 mg/kg, route intravenous
- reported.conditions: in vivo
metric.name: clearance
Record the result as a number with its unit.

Prompt line: GET /values?readout=clearance&item= C[C@@H]1CN(C(=O)c2ccccc2)CCN1c1nnc(-c2ccc(C(F)(F)F)cc2)c2ccccc12
Response line: 5 mL/min/kg

----------
- experiment.description: Metabolic stability in rat liver microsome assessed as compound turnover after 30 mins
- Assay type: ADME
- reported.conditions: liver microsomes, read-out: Stability
Reported metabolised at 0.5 h values for the following compounds.
Express the result in % but write the number alone.

{"columns": ["molecular.string", "measurement.unit", "metabolised at 0.5 h"],
 "data": [
  ["O=C(c1ccccc1)N1CCN(c2nnc(-c3ccc(Cl)cc3)c3ccccc23)CC1", "%", 10],
  ["O=C(c1ccccc1)N1CCN(c2nnc(-c3ccc(Cl)c(Cl)c3)c3ccccc23)CC1", "%", 10],
  ["COc1ccc(-c2nnc(N3CCN(C(=O)c4ccccc4)CC3)c3ccccc23)cc1", "%", 22]
]}

Prompt line: What value of metabolised at 0.5 h has been recorded for this entry: C[C@@H]1CN(C(=O)c2ccccc2)CCN1c1nnc(-c2ccc(Cl)cc2)c2ccccc12
Response line: 12

Prompt line: For the compound shown here, O=C(c1ccccc1)N1CCN(c2nnc(-c3ccc(F)cc3)c3ccccc23)CC1 , give the reported metabolised at 0.5 h.
Response line: 10

Prompt line: # input compound: COc1cccc(-c2nnc(N3CCN(C(=O)c4ccccc4)CC3)c3ccccc23)c1 ; wanted: its metabolised at 0.5 h
Response line: 33

----------
- experiment.description: Metabolic stability in rat liver microsome assessed as compound turnover after 30 mins
- Format: ADME
- reported.conditions: liver microsomes, read-out: Stability
Class assignment keyed on metabolised at 0.5 h, ranges zone 1 (below 20%), zone 2 (20% to below 40%), zone 3 (40% or more)

Solved cases (5 shown):
{"columns": ["molecular.string", "assigned.category"],
 "data": [
  ["Cc1ccc(-c2nnc(N3CCN(C(=O)c4ccccc4)C[C@H]3C)c3ccccc23)cc1", "zone 3"],
  ["C[C@@H]1CN(C(=O)c2ccccc2)CCN1c1nnc(-c2ccc(N(C)C)cc2)c2ccccc12", "zone 3"],
  ["C[C@H]1CN(c2nnc(-c3ccccc3)c3ccccc23)CCN1C(=O)c1ccccc1", "zone 2"],
  ["C[C@H]1CN(c2nnc(-c3cccnc3)c3ccccc23)CCN1C(=O)c1ccccc1", "zone 1"],
  ["C[C@H]1CN(c2nnc(N3CC=CC=N3)c3ccccc23)CCN1C(=O)c1ccccc1", "zone 1"]
]}

Prompt line: Class? Entry: N#Cc1cccc(-c2nnc(N3CCN(C(=O)c4ccccc4)CC3)c3ccccc23)c1
Response line: zone 1

Prompt line: In plain terms, what class is C[C@H]1CN(c2nnc(-c3ccc(C(F)(F)F)cc3)c3ccccc23)CCN1C(=O)c1ccccc1 ?
Response line: zone 1

Prompt line: Which class does C[C@H]1CN(c2nnc(-c3ccc(F)cc3)c3ccccc23)CCN1C(=O)c1ccccc1 fall in?
Response line: zone 1

Prompt line: Which of the defined bands does the recorded metabolised at 0.5 h of O=C(c1ccco1)N1CCN(c2nnc(-c3ccccc3)c3ccccc23)CC1 sit within?
Response line: zone 2

Prompt line: Looking at C[C@H]1CN(c2nnc(-c3ccc(Cl)cc3)c3ccccc23)CCN1C(=O)c1ccccc1 , which class would you pick?
Response line: zone 1

----------
Attribute: inhibition at 3 µM
- target.under.test: CYP2D6 (Homo sapiens, UniProt P10635)
- Sequence (P10635 whole entry): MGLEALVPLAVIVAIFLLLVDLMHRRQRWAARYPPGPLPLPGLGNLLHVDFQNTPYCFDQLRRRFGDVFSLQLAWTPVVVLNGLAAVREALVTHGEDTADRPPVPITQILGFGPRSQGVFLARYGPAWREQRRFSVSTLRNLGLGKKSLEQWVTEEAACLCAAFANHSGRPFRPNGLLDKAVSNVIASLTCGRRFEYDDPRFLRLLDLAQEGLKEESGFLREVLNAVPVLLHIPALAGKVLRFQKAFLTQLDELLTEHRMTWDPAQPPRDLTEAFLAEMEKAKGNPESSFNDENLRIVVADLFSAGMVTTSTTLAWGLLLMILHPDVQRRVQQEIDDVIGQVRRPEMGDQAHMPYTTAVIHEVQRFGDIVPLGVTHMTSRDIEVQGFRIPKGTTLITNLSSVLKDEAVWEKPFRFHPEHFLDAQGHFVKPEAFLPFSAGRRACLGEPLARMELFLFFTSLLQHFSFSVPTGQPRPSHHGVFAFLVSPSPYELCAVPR
- experiment.description: Inhibition of human CYP2D6 at 3 uM by HPLC-MS
- Format: ADME

Sample answers from the record:
{"columns": ["molecular.string", "target.under.test", "inhibition at 3 µM"],
 "data": [
  ["C[C@H]1CN(c2nnc(-c3ccc(C(F)(F)F)cc3)c3ccccc23)CCN1C(=O)c1ccccc1", "CYP2D6 (Homo sapiens, UniProt P10635)", "< 10%"],
  ["C[C@@H]1CN(C(=O)c2ccccc2)CCN1c1nnc(-c2ccc(CO)cc2)c2ccccc12", "CYP2D6 (Homo sapiens, UniProt P10635)", "< 10%"]
]}

For the next question, use this molecule.
Prompt line: Which inhibition at 3 µM is listed for O=C(c1ccccc1)N1CCN(c2nnc(-c3ccccc3Cl)c3ccccc23)CC1 ?
Response line: < 10%

----------
- experiment.description: Metabolic stability in human liver microsome assessed as compound turnover after 30 mins
- Type: ADME
- reported.conditions: liver microsomes, read-out: Stability
Rule: metabolised at 0.5 h below 40% gives class 1, anything at or above gives class 0.

See these solved cases before continuing.
{"columns": ["molecular.string", "assigned.category"],
 "data": [
  ["C[C@H]1CN(c2nnc(N3CC=CC=N3)c3ccccc23)CCN1C(=O)c1ccccc1", "class 1"],
  ["C[C@@H]1CN(C(=O)c2ccccc2)CCN1c1nnc(-c2ccc(C#N)cc2)c2ccccc12", "class 1"],
  ["C[C@H]1CN(c2nnc(-c3ccc(Cl)cc3)c3ccccc23)CCN1C(=O)c1ccccc1", "class 1"],
  ["O=C(c1ccccc1)N1CCN(c2nnc(-c3ccc(Cl)cc3)c3ccccc23)CC1", "class 1"]
]}

Prompt line: Quick check: does N#Cc1cccc(-c2nnc(N3CCN(C(=O)c4ccccc4)CC3)c3ccccc23)c1 have metabolised at 0.5 h under 40%?
Response line: class 1

Prompt line: Quick check: metabolised at 0.5 h of Cc1ccc(-c2nnc(N3CCN(C(=O)c4ccccc4)C[C@H]3C)c3ccccc23)cc1 under 40%?
Response line: class 0

Prompt line: Lab log: compare recorded metabolised at 0.5 h with 40%; is it strictly lower for O=C(c1ccccc1)N1CCN(c2nnc(-c3ccc(F)cc3)c3ccccc23)CC1 ?
Response line: class 1

Prompt line: # check: metabolised at 0.5 h < 40% for O=C(c1nccs1)N1CCN(c2nnc(-c3ccccc3)c3ccccc23)CC1
Response line: class 0

----------
- target.under.test: CYP2D6 (Homo sapiens)
- experiment.description: Inhibition of human CYP2D6 at 3 uM by HPLC-MS
- Format: ADME
Outcome: YES for inhibition at 3 µM of at least 20%; NO for anything lower.

// below: answered compounds
{"columns": ["molecular.string", "assigned.category"],
 "data": [
  ["C[C@H]1CN(c2nnc(-c3ncco3)c3ccccc23)CCN1C(=O)c1ccccc1", "YES"],
  ["Cc1ccc(-c2nnc(N3CCN(C(=O)c4ccccc4)C[C@H]3C)c3ccccc23)cc1", "NO"],
  ["C[C@@H]1CN(C(=O)c2ccccc2)CCN1c1nnc(-c2ccc(C3CC3)cc2)c2ccccc12", "NO"],
  ["C[C@H]1CN(c2nnc(N3CC=CC=N3)c3ccccc23)CCN1C(=O)c1ccccc1", "NO"],
  ["O=C(c1ccccc1)N1CCN(c2nnc(-c3ccc(Cl)cc3)c3ccccc23)CC1", "YES"],
  ["C[C@@H]1CN(C(=O)c2ccccc2)CCN1c1nnc(-c2ccc(C(C)(C)C)cc2)c2ccccc12", "NO"]
]}

Prompt line: Could you tell me if the measured inhibition at 3 µM of Cc1ccccc1-c1nnc(N2CCN(C(=O)c3ccccc3)CC2)c2ccccc12 reaches 20% or more?
Response line: YES

----------
- experiment.description: Metabolic stability in human liver microsome assessed as compound turnover after 30 mins
- Type: ADME
- reported.conditions: liver microsomes, read-out: Stability
metric.name: metabolised at 0.5 h (%)
Please give a number only; it is taken to be in %.

{"columns": ["molecular.string", "measured"],
 "data": [
  ["C[C@H]1CN(c2nnc(-c3ccc(F)cc3)c3ccccc23)CCN1C(=O)c1ccccc1", 10],
  ["C[C@@H]1CN(C(=O)c2ccccc2)CCN1c1nnc(-c2ccc(N(C)C)cc2)c2ccccc12", 59],
  ["O=C(c1ccco1)N1CCN(c2nnc(-c3ccccc3)c3ccccc23)CC1", 43],
  ["Cc1ccc(-c2nnc(N3CCN(C(=O)c4ccccc4)CC3)c3ccccc23)cc1", 45],
  ["COc1cccc(-c2nnc(N3CCN(C(=O)c4ccccc4)CC3)c3ccccc23)c1", 43]
]}

Prompt line: Tell me the measured metabolised at 0.5 h of C[C@@H]1CN(C(=O)c2ccccc2)CCN1c1nnc(-c2ccc(Cl)cc2)c2ccccc12 , please.
Response line: 38

Prompt line: Which metabolised at 0.5 h is reported for this molecule? C[C@@H]1CN(C(=O)c2ccccc2)CCN1c1nnc(-c2ccc(C3CC3)cc2)c2ccccc12
Response line: 34
